From: patent US20090311217A1

target: PI3K-alpha (Homo sapiens, UniProt P42336); test: PI3K-alpha fluorescence polarization assay; type: biochemical; details: read-out: PI3Kα Avg. IC50
Sequence (P42336 whole entry, species assumed): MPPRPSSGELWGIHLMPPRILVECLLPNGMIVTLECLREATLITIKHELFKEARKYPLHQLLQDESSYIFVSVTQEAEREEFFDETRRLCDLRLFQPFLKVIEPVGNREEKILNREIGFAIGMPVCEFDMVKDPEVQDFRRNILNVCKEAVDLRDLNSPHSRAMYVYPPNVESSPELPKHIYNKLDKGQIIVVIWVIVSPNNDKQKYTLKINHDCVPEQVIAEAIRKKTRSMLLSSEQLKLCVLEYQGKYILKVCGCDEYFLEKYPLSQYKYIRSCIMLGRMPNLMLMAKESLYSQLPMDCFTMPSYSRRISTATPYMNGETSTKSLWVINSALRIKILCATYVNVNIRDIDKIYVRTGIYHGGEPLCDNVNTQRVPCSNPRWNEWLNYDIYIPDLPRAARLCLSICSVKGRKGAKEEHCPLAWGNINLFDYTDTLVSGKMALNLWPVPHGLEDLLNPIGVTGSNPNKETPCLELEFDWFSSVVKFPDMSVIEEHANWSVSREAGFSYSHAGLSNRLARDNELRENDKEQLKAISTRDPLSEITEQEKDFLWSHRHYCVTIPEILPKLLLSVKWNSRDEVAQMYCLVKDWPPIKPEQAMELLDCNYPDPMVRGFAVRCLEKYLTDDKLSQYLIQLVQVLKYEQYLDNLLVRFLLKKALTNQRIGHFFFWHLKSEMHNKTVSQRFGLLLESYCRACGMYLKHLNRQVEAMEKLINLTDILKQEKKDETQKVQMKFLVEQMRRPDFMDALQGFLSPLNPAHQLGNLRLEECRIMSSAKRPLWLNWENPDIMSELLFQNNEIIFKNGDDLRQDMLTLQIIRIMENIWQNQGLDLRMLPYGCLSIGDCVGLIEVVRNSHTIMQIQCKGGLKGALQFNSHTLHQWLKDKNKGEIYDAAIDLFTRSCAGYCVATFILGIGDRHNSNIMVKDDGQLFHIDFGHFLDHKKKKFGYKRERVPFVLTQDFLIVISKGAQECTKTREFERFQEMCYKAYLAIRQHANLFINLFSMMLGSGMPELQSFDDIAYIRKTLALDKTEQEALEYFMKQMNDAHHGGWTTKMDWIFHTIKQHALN
Sequence (P27986 whole entry partner, species assumed): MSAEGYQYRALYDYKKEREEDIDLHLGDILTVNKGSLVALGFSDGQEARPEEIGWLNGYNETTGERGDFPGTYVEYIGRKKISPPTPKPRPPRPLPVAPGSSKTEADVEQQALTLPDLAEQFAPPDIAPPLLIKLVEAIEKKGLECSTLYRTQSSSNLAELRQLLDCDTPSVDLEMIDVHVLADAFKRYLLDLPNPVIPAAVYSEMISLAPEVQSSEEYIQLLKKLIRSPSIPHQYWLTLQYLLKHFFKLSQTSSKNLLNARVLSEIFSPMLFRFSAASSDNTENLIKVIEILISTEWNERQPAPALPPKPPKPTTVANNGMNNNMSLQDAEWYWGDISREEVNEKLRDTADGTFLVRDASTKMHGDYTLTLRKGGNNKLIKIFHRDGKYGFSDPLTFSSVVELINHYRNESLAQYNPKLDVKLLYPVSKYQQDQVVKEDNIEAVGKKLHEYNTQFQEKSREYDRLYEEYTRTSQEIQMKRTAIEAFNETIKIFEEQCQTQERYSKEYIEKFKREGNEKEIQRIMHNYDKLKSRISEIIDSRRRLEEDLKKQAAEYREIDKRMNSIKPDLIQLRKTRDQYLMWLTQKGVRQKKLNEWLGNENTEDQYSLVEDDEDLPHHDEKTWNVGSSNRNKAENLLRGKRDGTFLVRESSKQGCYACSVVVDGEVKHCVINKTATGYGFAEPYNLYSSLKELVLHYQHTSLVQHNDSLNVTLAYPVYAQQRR
IC50 strictly less than 1000 nM = 1. Otherwise 0.

Here are 5 molecules together with their reported answers.
1. Cc1[nH]c2ccc([N+](=O)[O-])cc2c1/C=C1\Oc2cc(O)ccc2C1=O; 0
2. COc1cccc(-c2[nH]c3ccccc3c2C=C2Oc3cc(O)cc(O)c3C2=O)c1; 0
3. COc1ccc2c(c1)c(/C=C1\Oc3cc(O)cc(O)c3C1=O)c(C)n2CCO; 1
4. COc1ccc2c(c1)c(/C=C1\Oc3cc(O)cc(O)c3C1=O)cn2CCN1CCN(C)CC1; 1
5. CN1CCN(CCn2cc(/C=C3\Oc4cc(O)cc(O)c4C3=O)c3c(-c4ccc(N(C)C)cc4)cccc32)CC1; 0

## Task Check if IC50 falls below 1000 nM for O=C1C(=Cc2c(-c3ccc(F)c(Cl)c3)[nH]c3ccccc23)Oc2cc(O)cc(O)c21 .
## Result 0

## Task Check if IC50 falls below 1000 nM for COc1cc(/C=C/CN2CCCCC2)c2[nH]cc(/C=C3\Oc4cc(O)ccc4C3=O)c2c1 .
## Result 1

## Task Check if IC50 falls below 1000 nM for COc1ccc2c(c1)c(/C=C1\Oc3ccc(NC(=O)Nc4cccnc4)cc3C1=O)c(C1CCCC1)n2CCN1CCN(C)CC1 .
## Result 1

## Task Check if IC50 falls below 1000 nM for O=C(O)c1ccc2[nH]cc(C=C3Oc4cc(O)cc(O)c4C3=O)c2c1 .
## Result 0

----------
target: PI3K-alpha (Homo sapiens, UniProt P42336); assay: PI3K-alpha fluorescence polarization assay; assay type: biochemical; settings: read-out: PI3Kα Avg. IC50
Record form. Attribute: pIC50. Fill in for each entry.
Numbers only, as −log10 of the molar value.

See these solved cases before continuing.
1) COc1cccc(-c2c(C=C3Oc4cc(O)cc(O)c4C3=O)c3ccccc3n2C)c1 [Example 196]; 5.77
2) CCc1cccc2c(C=C3Oc4cc(O)cc(O)c4C3=O)c[nH]c12 [Example 187]; 5.30
3) COC(=O)c1cccc2[nH]cc(C=C3Oc4cc(O)cc(O)c4C3=O)c12 [Example 222]; 5.35
4) COc1ccc2c(c1)c(/C=C1\Oc3cc(O)cc(O)c3C1=O)c(C)n2CC(=O)N(C)C [Example 322]; 7.40
5) CNC(=O)Nc1ccc2c(c1)C(=O)/C(=C/c1c(C#N)n(CCN3CCN(C)CC3)c3ccc(OC)cc13)O2 [Compound 628]; 7.96

Per the record, COc1ccc2[nH]c(-c3c(C)nn(C)c3C)c(/C=C3\Oc4ccc(NC(=O)Nc5ccc(C(=O)N6CCN(C(C)C)CC6)cc5)cc4C3=O)c2c1 [Compound 700] has pIC50 of 9.40

----------
molecular target: human TOR (Homo sapiens, UniProt P42345); construct: FLAG; experiment: mTOR enzyme assay (DELFIA, His6-S6K substrate); assay type: biochemical; conditions: read-out: mTOR Kinase Avg. IC50
IC50 strictly less than 300 nM = True. Otherwise False.

1. CCn1c(C)c(/C=C2\Oc3ccc(NC(=O)Nc4ccc(N(C)CCCCN(C)C)cc4)cc3C2=O)c2cc(OC)ccc21; False

## Task Check if IC50 falls below 300 nM for Cn1c(-c2cccnc2)c(C=C2Oc3cc(O)cc(O)c3C2=O)c2ccccc21 .
## Result True

## Task Check if IC50 falls below 300 nM for N#CCCCn1cc(C=C2Oc3cc(O)cc(O)c3C2=O)c2ccccc21 .
## Result False

## Task Check if IC50 falls below 300 nM for O=C1/C(=C/c2c(-c3ccc4ccccc4c3)[nH]c3ccccc23)Oc2cc(O)cc(O)c21 .
## Result True

## Task Check if IC50 falls below 300 nM for COc1cc(F)c2[nH]c(-c3c(C)nn(C)c3C)c(/C=C3\Oc4ccc(NC(=O)Nc5ccc(C(=O)N(C)CCN(C)C)cc5)cc4C3=O)c2c1 .
## Result True

## Task Check if IC50 falls below 300 nM for Cn1cc(C=C2Oc3cc(O)ccc3C2=O)c2ccccc21 .
## Result False

## Task Check if IC50 falls below 300 nM for COc1cc(F)c2[nH]c(-c3c(C)nn(C)c3C)c(/C=C3\Oc4ccc(NC(=O)Nc5ccc(C(=O)N6CCC(N(C)C)C6)cc5)cc4C3=O)c2c1 (centres unmarked) .
## Result True

## Task Check if IC50 falls below 300 nM for O=C1/C(=C/c2c(-c3ccc4ccccc4c3)[nH]c3ccccc23)Oc2c1ccc(O)c2O .
## Result False

----------
molecular target: human TOR (Homo sapiens, UniProt P42345); construct: FLAG; assay: mTOR enzyme assay (DELFIA, His6-S6K substrate); format: biochemical; settings: read-out: mTOR Kinase Avg. IC50
measuredParameter: pIC50
One number for each entry, as −log10 of the molar value.

1. O=C1C(=Cc2c[nH]c3ccc(O)cc23)Oc2cc(O)cc(O)c21; 5.28
2. Cn1cc(C=C2Oc3cc(O)cc(O)c3C2=O)c2cc(F)ccc21; 5.42

Then this compound:
Per the record, CC(C)Cn1c(-c2ccccc2)c(C=C2Oc3cc(O)cc(O)c3C2=O)c2ccccc21 has pIC50 of 5.19

----------
molecular target: human TOR (Homo sapiens); construct: FLAG; assay: mTOR enzyme assay (DELFIA, His6-S6K substrate); type: biochemical; conditions: read-out: mTOR Kinase Avg. IC50
Record form. Attribute: IC50. Fill in for each entry.
Answers are plain numbers, in nM.

1) CN(C)c1cccc(-c2cccc3c2c(/C=C2\Oc4cc(O)cc(O)c4C2=O)cn3C)c1; 111
2) COc1ccc2c(c1)c(/C=C1\Oc3cc(O)cc(O)c3C1=O)c(C(=O)N(C)C)n2CCN1CCN(C)CC1; 14.5
3) CC(=O)Nc1cccc(-c2cccc3c2c(/C=C2\Oc4cc(O)cc(O)c4C2=O)cn3C)c1; 200
4) Cc1[nH]c2ccc(Br)cc2c1/C=C1\Oc2cc(O)cc(O)c2C1=O; 190

For every item below, please supply its IC50.
1. CCn1c(C)c(/C=C2\Oc3ccc(NC(=O)Nc4ccc(C(=O)NCCCN(C)C)cc4)cc3C2=O)c2cc(OC)ccc21
2. COc1ccc2c(c1)c(C=C1Oc3cc(O)cc(O)c3C1=O)cn2CCCN(C)C

## Result
1. 34
2. 2120

----------
biological target: PI3K-alpha (Homo sapiens); assay: PI3K-alpha fluorescence polarization assay; type: biochemical; details: read-out: PI3Kα Avg. IC50
Record form. Attribute: IC50. Fill in for each entry.
Give bare numbers, in nM.

1. CNC(=O)Nc1ccc2c(c1)C(=O)/C(=C/c1c(C)n(CCN3CCCCC3)c3ccc(OC)cc13)O2; 15
2. CCn1c(C)c(/C=C2\Oc3ccc(NC(=O)Nc4ccc(C(=O)N5CCC(N(C)C)CC5)cc4)cc3C2=O)c2cc(OC)ccc21; 0.4
3. COc1ccc2c(c1)c(/C=C1\Oc3ccc(NC(=O)Nc4ccc(C(=O)N5CCN(C)CC5)cc4)cc3C1=O)c(C)n2CCO; 0.2
4. COc1ccc2c(c1)c(/C=C1\Oc3cc(NC(=O)OC(C)(C)C)ccc3C1=O)cn2CCCN(C)C; 4740
5. C=CCNC(=O)Nc1ccc2c(c1)C(=O)/C(=C/c1cn(CCN3CCN(C)CC3)c3ccc(OC)cc13)O2; 64.5
6. Cc1ccc2c(/C=C3\Oc4cc(O)cc(O)c4C3=O)c[nH]c2c1; 3420
7. COc1ccc2c(c1)c(/C=C1\Oc3c(ccc(O)c3F)C1=O)c(C)n2CCCN(C)C; 166
8. CNC(=O)Nc1ccc2c(c1)C(=O)/C(=C/c1c(C(=O)NC(C)(C)CO)[nH]c3ccc(OC)cc13)O2; 8
9. COC(=O)c1cccc2c1c(C=C1Oc3cc(O)cc(O)c3C1=O)cn2C; 2060
10. CCc1cc(OC)cc2c(C=C3Oc4cc(O)cc(O)c4C3=O)cn(CCCC#N)c12; 62.5

For every item below, please supply its IC50.
1. COc1ccc2c(c1)c(/C=C1\Oc3ccc(NC(=O)NCCN)cc3C1=O)c(-c1ccccc1)n2CCN1CCN(C)CC1
2. CNC(=O)Nc1ccc2c(c1)C(=O)/C(=C/c1c(C)n(CCCN3CCN(CCO)CC3)c3ccc(OC)cc13)O2
3. O=C1C(=Cc2c(-c3ccccc3)n(CCN3CCCC3)c3ccccc23)Oc2cc(O)cc(O)c21

## Result
1: 0.6; 2: 10; 3: 1520

----------
target: PI3K-alpha (Homo sapiens, UniProt P42336); experiment: PI3K-alpha fluorescence polarization assay; type: biochemical; details: read-out: PI3Kα Avg. IC50
measuredParameter: IC50 (nM)
One number for each entry, in nM.

See these solved cases before continuing.
1) Cn1c(-c2cccnc2)c(C=C2Oc3cc(O)cc(O)c3C2=O)c2ccccc21; 2710
2) CNC(=O)Nc1ccc2c(c1)C(=O)/C(=C/c1c(C)n(CCCN3CCOCC3)c3ccc(OC)cc13)O2; 11
3) CNC(=O)Nc1ccc2c(c1)C(=O)/C(=C/c1c(-c3c(C)nn(C)c3C)[nH]c3c(C(F)(F)F)cc(OC)cc13)O2; 13
4) COc1ccc2c(c1)c(/C=C1\Oc3cc(O)cc(O)c3C1=O)c(-c1cnn(C)c1)n2CCN1CCN(C)CC1; 1.7
5) CNC(=O)Nc1ccc2c(c1)C(=O)/C(=C/c1c(-c3ccc(CN(C)C)cc3)[nH]c3ccc(OC)cc13)O2; 2.1

For every item below, please supply its IC50.
1. Cn1cc(/C=C2\Oc3cc(O)cc(O)c3C2=O)c2c(-c3ccc([N+](=O)[O-])cc3)cccc21
2. Cc1[nH]c2ccccc2c1/C=C1\Sc2ccccc2C1=O

## Result
[708, 1320]
